Where do these numbers come from? They come from PubChem BioAssay AID2060483.

- Tested on: K24384-001-R-PDC complex spheroids, viability;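 also: spheroids exposed to compounds for seven days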
- test.summary: Anticancer human tumor K24384-001-R-PDC patient-derived pancreatic adenocarcinoma cell line growth inhibition [GQUAD]
- conditions.used: curve of first compound; second compound 0.1 µM
attribute.measured: IC50 (nM)
API: value field is a number in nM; no unit string.

1. Nc1ccn(C2OC(CO)C(O)C2(F)F)c(=O)n1 (stereo not drawn) + CN(C)c1ccc(Nc2c3ccc(NC(=O)CCN4CCCC4)cc3nc3cc(NC(=O)CCN4CCCC4)ccc23)cc1 | 157

Then this compound:
Enquiry: Report IC50 for COc1cccc2c1C(=O)c1c(O)c3c(c(O)c1C2=O)CC(O)(C(=O)CO)CC3OC1CC(N)C(O)C(C)O1 (stereo not drawn) + CN(C)c1ccc(Nc2c3ccc(NC(=O)CCN4CCCC4)cc3nc3cc(NC(=O)CCN4CCCC4)ccc23)cc1
Return: 183
